For each entry below, report its MIC value.
# Tested on: Staphylococcus aureus ATCC29213
# Experimental protocol: MIC, micro-broth dilution method
# Type: cell-based
# Experimental conditions: Staphylococcus aureus ATCC29213; 37° C., 20-22 h; read-out: Minimum inhibitory concentration
Give the number; µg/mL is assumed, so skip it.

Which measured MIC value corresponds to C=C[C@]1(C)C[C@@H](OC(=O)COC(=O)/C=C/c2cc(Br)ccc2F)[C@]2(C)[C@H](C)CC[C@]3(CCC(=O)[C@H]32)[C@@H](C)[C@@H]1O ?
32

Which measured MIC value corresponds to C=C[C@]1(C)C[C@@H](OC(=O)COC(=O)/C=C/c2cccc(F)c2)[C@]2(C)[C@H](C)CC[C@]3(CCC(=O)[C@H]32)[C@@H](C)[C@@H]1O ?
32

Which measured MIC value corresponds to C=C[C@]1(C)C[C@@H](OC(=O)COC(=O)/C=C/c2ccc3ccccc3c2)[C@]2(C)[C@H](C)CC[C@]3(CCC(=O)[C@H]32)[C@@H](C)[C@@H]1O ?
32

Which measured MIC value corresponds to C=C[C@]1(C)C[C@@H](OC(=O)CSCCN(CC)CC)[C@]2(C)[C@H](C)CC[C@]3(CCC(=O)[C@H]32)[C@@H](C)[C@@H]1O [Tiamulin, reference compound] ?
256

Which measured MIC value corresponds to C=C[C@]1(C)C[C@@H](OC(=O)COC(=O)/C=C/c2ccc(F)c(Cl)c2)[C@]2(C)[C@H](C)CC[C@]3(CCC(=O)[C@H]32)[C@@H](C)[C@@H]1O ?
32

Which measured MIC value corresponds to C=C[C@]1(C)C[C@@H](OC(=O)COC(=O)/C=C/c2cccc(Cl)c2)[C@]2(C)[C@H](C)CC[C@]3(CCC(=O)[C@H]32)[C@@H](C)[C@@H]1O ?
32

Which measured MIC value corresponds to C=C[C@]1(C)C[C@@H](OC(=O)COC(=O)/C=C/c2ccc(F)cc2)[C@]2(C)[C@H](C)CC[C@]3(CCC(=O)[C@H]32)[C@@H](C)[C@@H]1O ?
32

Which measured MIC value corresponds to C=C[C@]1(C)C[C@@H](OC(=O)COC(=O)/C=C/c2ccc(C(F)(F)F)cc2F)[C@]2(C)[C@H](C)CC[C@]3(CCC(=O)[C@H]32)[C@@H](C)[C@@H]1O ?
16

Which measured MIC value corresponds to C=C[C@]1(C)C[C@@H](OC(=O)COC(=O)/C=C/c2ccccc2)[C@]2(C)[C@H](C)CC[C@]3(CCC(=O)[C@H]32)[C@@H](C)[C@@H]1O ?
16

Which measured MIC value corresponds to C=C[C@]1(C)C[C@@H](OC(=O)COC(=O)/C=C/c2ccc(F)c(F)c2F)[C@]2(C)[C@H](C)CC[C@]3(CCC(=O)[C@H]32)[C@@H](C)[C@@H]1O ?
64

====

# Test system: Staphylococcus aureus ATCC29213
# Experimental protocol: MIC, micro-broth dilution method
# Format: cell-based
# Experimental conditions: Staphylococcus aureus ATCC29213; 37° C., 20-22 h; read-out: Minimum inhibitory concentration
Rule for this label: label 1 means MIC is less than 8 µg/mL; label 0 means MIC is at least 8 µg/mL.

Hello, is MIC of the following compound strictly smaller than 8 µg/mL? C=C[C@]1(C)C[C@@H](OC(=O)COC(=O)/C=C/c2ccc(N(C)C)cc2)[C@]2(C)[C@H](C)CC[C@]3(CCC(=O)[C@H]32)[C@@H](C)[C@@H]1O
label 1

Hello, is MIC of the following compound strictly smaller than 8 µg/mL? C=C[C@]1(C)C[C@@H](OC(=O)COC(=O)/C=C/c2ccccc2C(F)(F)F)[C@]2(C)[C@H](C)CC[C@]3(CCC(=O)[C@H]32)[C@@H](C)[C@@H]1O
label 0

Hello, is MIC of the following compound strictly smaller than 8 µg/mL? C=C[C@]1(C)C[C@@H](OC(=O)COC(=O)/C=C/c2ccc(C(F)(F)F)cc2)[C@]2(C)[C@H](C)CC[C@]3(CCC(=O)[C@H]32)[C@@H](C)[C@@H]1O
label 0

Hello, is MIC of the following compound strictly smaller than 8 µg/mL? C=C[C@]1(C)C[C@@H](OC(=O)COC(=O)/C=C/c2ccc(Cn3ccnc3)cc2)[C@]2(C)[C@H](C)CC[C@]3(CCC(=O)[C@H]32)[C@@H](C)[C@@H]1O
label 0

Hello, is MIC of the following compound strictly smaller than 8 µg/mL? C=C[C@]1(C)C[C@@H](OC(=O)COC(=O)/C=C/c2ccc([N+](=O)[O-])cc2)[C@]2(C)[C@H](C)CC[C@]3(CCC(=O)[C@H]32)[C@@H](C)[C@@H]1O
label 1

Hello, is MIC of the following compound strictly smaller than 8 µg/mL? C=C[C@]1(C)C[C@@H](OC(=O)COC(=O)/C=C/c2cccc(OCc3ccccc3)c2)[C@]2(C)[C@H](C)CC[C@]3(CCC(=O)[C@H]32)[C@@H](C)[C@@H]1O
label 0

Hello, is MIC of the following compound strictly smaller than 8 µg/mL? C=C[C@]1(C)C[C@@H](OC(=O)COC(=O)/C=C/c2cccc(C(F)(F)F)c2)[C@]2(C)[C@H](C)CC[C@]3(CCC(=O)[C@H]32)[C@@H](C)[C@@H]1O
label 0

====

# Test system: Methicillin-resistant Staphylococcus aureus ATCC33591
# Experimental protocol: MIC, micro-broth dilution method
# Assay type: cell-based
# Experimental conditions: Methicillin-resistant Staphylococcus aureus ATCC33591; 37° C., 20-22 h; read-out: Minimum inhibitory concentration
Reported property: log10 MIC (log10 of the value in µg/mL)
Would you kindly interpret these values as log10 of MIC expressed in µg/mL?

Record lookup: for Methicillin-resistant Staphylococcus aureus ATCC33591, what log10 MIC belongs to C=C[C@]1(C)C[C@@H](OC(=O)COC(=O)/C=C/c2cccc(C(F)(F)F)c2)[C@]2(C)[C@H](C)CC[C@]3(CCC(=O)[C@H]32)[C@@H](C)[C@@H]1O ?
2.41

Record lookup: for Methicillin-resistant Staphylococcus aureus ATCC33591, what log10 MIC belongs to C=C[C@]1(C)C[C@@H](OC(=O)COC(=O)/C=C/c2ccc(N(C)C)cc2)[C@]2(C)[C@H](C)CC[C@]3(CCC(=O)[C@H]32)[C@@H](C)[C@@H]1O ?
0.30

Record lookup: for Methicillin-resistant Staphylococcus aureus ATCC33591, what log10 MIC belongs to C=C[C@]1(C)C[C@@H](OC(=O)CSCCN(CC)CC)[C@]2(C)[C@H](C)CC[C@]3(CCC(=O)[C@H]32)[C@@H](C)[C@@H]1O [Tiamulin, reference compound] ?
2.11

Record lookup: for Methicillin-resistant Staphylococcus aureus ATCC33591, what log10 MIC belongs to C=C[C@]1(C)C[C@@H](OC(=O)COC(=O)/C=C/c2ccc(C(F)(F)F)cc2F)[C@]2(C)[C@H](C)CC[C@]3(CCC(=O)[C@H]32)[C@@H](C)[C@@H]1O ?
1.81

Record lookup: for Methicillin-resistant Staphylococcus aureus ATCC33591, what log10 MIC belongs to C=C[C@]1(C)C[C@@H](OC(=O)COC(=O)/C=C/c2ccccc2C(F)(F)F)[C@]2(C)[C@H](C)CC[C@]3(CCC(=O)[C@H]32)[C@@H](C)[C@@H]1O ?
2.11

Record lookup: for Methicillin-resistant Staphylococcus aureus ATCC33591, what log10 MIC belongs to C=C[C@]1(C)C[C@@H](OC(=O)COC(=O)/C=C/c2ccccc2)[C@]2(C)[C@H](C)CC[C@]3(CCC(=O)[C@H]32)[C@@H](C)[C@@H]1O ?
1.51

Record lookup: for Methicillin-resistant Staphylococcus aureus ATCC33591, what log10 MIC belongs to C=C[C@]1(C)C[C@@H](OC(=O)COC(=O)/C=C/c2ccc(F)c(F)c2F)[C@]2(C)[C@H](C)CC[C@]3(CCC(=O)[C@H]32)[C@@H](C)[C@@H]1O ?
2.11

Record lookup: for Methicillin-resistant Staphylococcus aureus ATCC33591, what log10 MIC belongs to C=C[C@]1(C)C[C@@H](OC(=O)COC(=O)/C=C/c2cccc(C#N)c2)[C@]2(C)[C@H](C)CC[C@]3(CCC(=O)[C@H]32)[C@@H](C)[C@@H]1O ?
1.20

Record lookup: for Methicillin-resistant Staphylococcus aureus ATCC33591, what log10 MIC belongs to C=C[C@]1(C)C[C@@H](OC(=O)COC(=O)/C=C/c2cccc(Cl)c2)[C@]2(C)[C@H](C)CC[C@]3(CCC(=O)[C@H]32)[C@@H](C)[C@@H]1O ?
1.51

Record lookup: for Methicillin-resistant Staphylococcus aureus ATCC33591, what log10 MIC belongs to C=C[C@]1(C)C[C@@H](OC(=O)COC(=O)/C=C/c2ccc3ccccc3c2)[C@]2(C)[C@H](C)CC[C@]3(CCC(=O)[C@H]32)[C@@H](C)[C@@H]1O ?
2.11
